Biological target: human mAChR M4 (Homo sapiens, UniProt P08173)
Construct: expressed in transfected cells; host or cells: CHO-K1 (ATCC), stably co-expressing chimeric G protein Gqi5
Sequence (P08173 1-479): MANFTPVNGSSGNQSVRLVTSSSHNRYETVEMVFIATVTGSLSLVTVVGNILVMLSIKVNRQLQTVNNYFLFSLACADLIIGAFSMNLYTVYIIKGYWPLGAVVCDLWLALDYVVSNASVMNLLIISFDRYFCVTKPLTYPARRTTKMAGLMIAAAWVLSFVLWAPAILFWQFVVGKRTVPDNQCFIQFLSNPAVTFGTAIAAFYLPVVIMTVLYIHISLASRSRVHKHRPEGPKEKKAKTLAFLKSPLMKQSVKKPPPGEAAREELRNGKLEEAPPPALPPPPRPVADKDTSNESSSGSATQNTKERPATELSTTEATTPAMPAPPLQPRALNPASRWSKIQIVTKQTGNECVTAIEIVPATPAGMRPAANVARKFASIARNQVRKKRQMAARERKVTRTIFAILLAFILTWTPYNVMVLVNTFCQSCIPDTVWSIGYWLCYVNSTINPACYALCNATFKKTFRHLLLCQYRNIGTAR
Assay: mAChR M4 cell-based functional assay (calcium mobilization, EC80 acetylcholine), human M4
Conditions: Table 10
REPORTED_METRIC: Human M4 Emin (%)

Some solved entries appear below for comparison.
Cc1nn(C)cc1-c1ccc(N[C@H]2C[C@@H]3CN(CCC(C)(C)C)C[C@@H]3C2)nc1: 4
FC(F)(F)Oc1ccc(-c2ccc(N[C@H]3C[C@@H]4CN(CC5CCOCC5)C[C@@H]4C3)nn2)cc1: 5
Cc1nn(C)cc1-c1ccc(O[C@H]2C[C@@H]3CN(CCC(C)(C)C)C[C@@H]3C2)nn1: 4
Fc1ccc(Cl)c(-c2ccc(N[C@H]3C[C@@H]4CN(Cc5cnccn5)C[C@@H]4C3)nn2)c1: 5

a. Cc1noc(C)c1-c1ccc(N[C@H]2C[C@@H]3CN(CCC(C)(C)C)C[C@@H]3C2)nn1
b. Cn1cc(-c2ccc(N[C@H]3C[C@@H]4CN(CC5CCOCC5)C[C@@H]4C3)nn2)cn1
c. COc1ccc(-c2ccc(N[C@H]3C[C@@H]4CN(CC5CCOCC5)C[C@@H]4C3)nn2)cc1F
Order the items by recorded Human M4 Emin; the first position goes to the largest value. Hello, could you send the labels back in the order asked? Thank you.
b, a, c

---

Biological target: human mAChR M4 (Homo sapiens, UniProt P08173)
Construct: expressed in transfected cells; host or cells: CHO-K1 (ATCC), stably co-expressing chimeric G protein Gqi5
Sequence (P08173 1-479): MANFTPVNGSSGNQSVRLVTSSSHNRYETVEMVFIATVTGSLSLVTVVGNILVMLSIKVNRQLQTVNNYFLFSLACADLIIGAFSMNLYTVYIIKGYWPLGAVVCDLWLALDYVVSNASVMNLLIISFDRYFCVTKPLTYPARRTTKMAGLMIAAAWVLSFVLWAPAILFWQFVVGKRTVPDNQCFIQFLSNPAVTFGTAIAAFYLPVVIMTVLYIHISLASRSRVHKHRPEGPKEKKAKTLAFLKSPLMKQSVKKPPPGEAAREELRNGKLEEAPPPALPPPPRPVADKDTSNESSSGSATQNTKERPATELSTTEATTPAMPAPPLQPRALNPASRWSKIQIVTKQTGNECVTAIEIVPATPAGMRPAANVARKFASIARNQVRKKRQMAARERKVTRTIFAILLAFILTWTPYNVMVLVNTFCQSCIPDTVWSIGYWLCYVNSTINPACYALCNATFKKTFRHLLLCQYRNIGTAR
Assay: mAChR M4 cell-based functional assay (calcium mobilization, EC80 acetylcholine), human M4
Details: Table 9; human M4; % ACh maximum at 30 μM
REPORTED_METRIC: Emin (%)

I. Fc1ccc(Cl)c(-c2ccc(OCC3C[C@@H]4CN(Cc5ccccn5)C[C@@H]4C3)nn2)c1 (stereo partly shown) [Compound 117]
II. Cc1nn(C)cc1-c1ccc(N[C@H]2C[C@@H]3CN(CC4CCCCC4)C[C@@H]3C2)nn1 [Compound 7]
III. Cc1nn(C)cc1-c1ccc(O[C@@H]2C[C@@H]3CN(CC4CCOCC4)C[C@@H]3C2)nn1 [Compound 50]
IV. Cc1nn(C)cc1-c1ccc(OCC2C[C@@H]3CN(CC4CCCOC4)C[C@@H]3C2)nn1 (stereo partly shown) [Compound 99]
Sequence the entries by Emin, beginning with the highest number. Hello, could you send the labels back in the order asked? Thank you.
III, IV, I, II

I. Cc1cccnc1CN1C[C@H]2CC(COc3ccc(-c4cn(C)nc4C)nn3)C[C@H]2C1 (stereo partly shown) [Compound 104]
II. Cc1cnn(C)c1-c1ccc(N[C@H]2C[C@@H]3CN(CC4CCOCC4)C[C@@H]3C2)nn1 [Compound 21]
Parameter check: reported Emin is higher for which label, I or II ? Let me know the label of the one you choose.
I
(I: 6.78%, II: 4.32%)

I. CC(C)(C)CCN1C[C@H]2C[C@H](CNc3ccc(-c4cc(F)ccc4Cl)nn3)C[C@H]2C1 [Compound 70]
II. Cc1cnn(C)c1-c1ccc(OCC2C[C@@H]3CN(CC4CCCOC4)C[C@@H]3C2)nn1 (stereo partly shown) [Compound 85]
Parameter check: reported Emin is higher for which label, I or II ? Let me know the label of the one you choose.
II

---

Biological target: human mAChR M4 (Homo sapiens, UniProt P08173)
Construct: expressed in transfected cells; host or cells: CHO-K1 (ATCC), stably co-expressing chimeric G protein Gqi5
Test: mAChR M4 cell-based functional assay (calcium mobilization, EC80 acetylcholine), human M4
Details: Table 10
REPORTED_METRIC: Human M4 Emin (%)

Some solved entries appear below for comparison.
c1csc(-c2ccc(N[C@H]3C[C@@H]4CN(CC5CCOCC5)C[C@@H]4C3)nn2)c1: 6
Fc1ccc(Cl)c(-c2ccc(N[C@H]3C[C@@H]4CN(Cc5ccco5)C[C@@H]4C3)nn2)c1: 3
CC(=O)Nc1ccc(-c2ccc(O[C@H]3C[C@@H]4CN(Cc5ncccc5C)C[C@@H]4C3)nn2)cc1: 5

I. CC(=O)Nc1ccc(-c2cnc(N[C@H]3C[C@@H]4CN(CCC(C)(C)C)C[C@@H]4C3)cn2)cc1
II. CS(=O)(=O)Nc1cccc(-c2ccc(N[C@H]3C[C@@H]4CN(CC5CCOCC5)C[C@@H]4C3)nn2)c1
III. Fc1ccc(Cl)c(-c2ccc(N[C@H]3C[C@@H]4CN(Cc5cnc6ccccc6c5)C[C@@H]4C3)nn2)c1
IV. c1cc(-c2ccc(N[C@H]3C[C@@H]4CN(CC5CCOCC5)C[C@@H]4C3)nn2)c[nH]1
Sort entries by Human M4 Emin from minimum to maximum value. Hello, could you send the labels back in the order asked? Thank you.
III, I, IV, II

---

Target: human mAChR M4 (Homo sapiens)
Construct: expressed in transfected cells; host or cells: CHO-K1 (ATCC), stably co-expressing chimeric G protein Gqi5
Sequence (P08173 1-479): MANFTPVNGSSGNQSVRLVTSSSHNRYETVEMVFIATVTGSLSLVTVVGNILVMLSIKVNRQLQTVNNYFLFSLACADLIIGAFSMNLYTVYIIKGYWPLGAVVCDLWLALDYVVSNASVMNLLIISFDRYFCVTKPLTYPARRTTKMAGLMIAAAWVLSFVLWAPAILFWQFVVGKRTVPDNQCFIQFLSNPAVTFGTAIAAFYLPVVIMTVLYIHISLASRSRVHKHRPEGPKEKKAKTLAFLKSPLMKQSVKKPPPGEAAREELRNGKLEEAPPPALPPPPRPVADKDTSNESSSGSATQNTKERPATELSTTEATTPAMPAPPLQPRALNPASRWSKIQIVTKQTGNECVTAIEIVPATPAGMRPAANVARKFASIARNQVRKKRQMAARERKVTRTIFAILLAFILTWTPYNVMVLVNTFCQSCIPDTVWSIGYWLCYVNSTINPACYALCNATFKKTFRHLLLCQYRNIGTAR
Test: mAChR M4 cell-based functional assay (calcium mobilization, EC80 acetylcholine), human M4
Conditions: Table 10
REPORTED_METRIC: Human M4 Emin (%)

Some solved entries appear below for comparison.
CC(=O)Nc1ccc(-c2ccc(O[C@H]3C[C@@H]4CN(CC5CCOCC5)C[C@@H]4C3)nn2)cc1: 6
c1cc(-c2ccc(N[C@H]3C[C@@H]4CN(CC5CCOCC5)C[C@@H]4C3)nn2)cs1: 5
CN(C)C(=O)c1ccc(-c2ccc(N[C@H]3C[C@@H]4CN(CC5CCOCC5)C[C@@H]4C3)nn2)cc1: 16

P. Cc1cnn(C)c1-c1ccc(NC(=O)[C@@H]2C[C@@H]3CN(CCC(C)(C)C)C[C@@H]3C2)nn1
Q. CC(=O)Nc1ccccc1-c1ccc(N[C@H]2C[C@@H]3CN(CC4CCOCC4)C[C@@H]3C2)nn1
Parameter check: reported Human M4 Emin is higher for which label, P or Q ? Let me know the label of the one you choose.
Q
(Q: 38%, P: 5%)

// provenance: patent US12577234B2
